inhibition at 1 µM listing for selected compounds.
- systemUnderTest: CDK2/A (Homo sapiens, UniProt P24941)
- Construct: purchased
- method: Inhibitory activity to CDK2 (FRET)
- Type: biochemical
- conditionSummary: read-out: CDK2 inhibition % (1 × 10^−6 mol/L)
- Description: CDK2/A was purchased in the form of a kit or obtained through purification. Procedures: CDK2/A is diluted to a suitable concentration with kinase diluent. The kinase reaction mixture contains CDK2/A, peptide substrate, HEPES (pH7.5), BRIJ-35, MgCl2 and EDTA. CDK2 phospho-peptide substrate is used as the control of 100% phosphorylation and ATP-free as the control of 0% phosphorylation. […] The inhibitions of the tested compounds are calculated according to the formula.
endpoint: inhibition at 1 µM (%)

chemsmiles=O=C(Nc1ccc(CN2CCOCC2)cc1)c1n[nH]cc1Nc1nccc2ccoc12 endpoint="inhibition at 1 µM" observedvalue=64.8
chemsmiles=O=C(Nc1ccc(CN2CCOCC2)cc1)c1n[nH]cc1Nc1nccc2sccc12 endpoint="inhibition at 1 µM" observedvalue=73.1
chemsmiles=O=C(Nc1ccc(CN2CCOCC2)cc1)c1n[nH]cc1Nc1ncnc2ccoc12 endpoint="inhibition at 1 µM" observedvalue=67.1
chemsmiles=CN1CCN(Cc2ccc(NC(=O)c3n[nH]cc3Nc3ncnc4occc34)cc2)CC1 endpoint="inhibition at 1 µM" observedvalue=66
